# Test description: Thermal cis→trans relaxation followed by 1H NMR in CD2Cl2
# Type: physicochemical
# Experimental parameters: CD2Cl2 at 294 K, starting from PSS710
Result type: Half-life, cis→trans thermal relaxation (min)

(A) CN1CCN(c2ccc(N=[N+]3C(C#N)=C4C=Cc5ccccc5N4[B-]3(F)F)cc2)CC1
(B) N#CC1=C2C=Cc3ccccc3N2[B-](F)(F)[N+]1=Nc1ccc(N2CCCCC2)cc1
(C) CN(C)c1ccc(N=[N+]2C(C#N)=C3C=Cc4ccccc4N3[B-]2(F)F)cc1
(D) N#CC1=C2C=Cc3ccccc3N2[B-](F)(F)[N+]1=Nc1ccc(N2CCOCC2)cc1
Kindly sort the 4 compounds above from the smallest to the largest Half-life, cis→trans thermal relaxation. Answer with the labels in sequence, matching the requested order.
B, C, A, D
(B: 2.5 min, C: 4.17 min, A: 6.67 min, D: 15 min)

----------
# Test description: Stability (hydrolysis) in acetonitrile:PBS buffer (1:1), followed by UV-Vis
# Format: physicochemical
# Experimental parameters: acetonitrile:PBS (1:1), 25° C.
Result type: degradation (hydrolysis) half-life (h)

For orientation, consider the following solved cases.
{"Compound": "CN1CCN(c2ccc(N=[N+]3C(C#N)=C4C=Cc5ccccc5N4[B-]3(F)F)cc2)CC1 [Compound 6]", "degradation (hydrolysis) half-life / h": 1.2}
{"Compound": "CN(C)c1ccc(N=[N+]2C(C#N)=C3C=Cc4ccccc4N3[B-]2(F)F)cc1 [Compound 4]", "degradation (hydrolysis) half-life / h": 2.3}

(1) N#CC1=C2C=Cc3ccccc3N2[B-](F)(F)[N+]1=Nc1ccc(N2CCCCC2)cc1 [Compound 5]
(2) N#CC1=C2C=Cc3ccccc3N2[B-](F)(F)[N+]1=Nc1ccc(N2CCOCC2)cc1 [Compound 7]
From the items above, decide which of 1 and 2 has the lower degradation (hydrolysis) half-life reading. I would appreciate it if you answered with the label of your choice.
2
(2: 0.9 h, 1: 2 h)

----------
# Test description: Isomer ratios under dark and at photostationary states by 1H NMR
# Assay type: physicochemical
Result type: trans isomer ratio under dark (%)

{"Mol smiles": "COc1ccc(N=[N+]2C(C#N)=C3C=Cc4ccccc4N3[B-]2(F)F)c(OC)c1", "trans isomer ratio under dark / %": 58}
{"Mol smiles": "N#CC1=C2C=Cc3ccccc3N2[B-](F)(F)[N+]1=Nc1ccc(N2CCOCC2)cc1", "trans isomer ratio under dark / %": 97}
{"Mol smiles": "N#CC1=C2C=Cc3ccccc3N2[B-](F)(F)[N+]1=Nc1ccc(N2CCCCC2)cc1", "trans isomer ratio under dark / %": 98}
{"Mol smiles": "CN(C)c1ccc(N=[N+]2C(C#N)=C3C=Cc4ccccc4N3[B-]2(F)F)cc1", "trans isomer ratio under dark / %": 97}
{"Mol smiles": "COc1ccc(N=[N+]2C(C#N)=C3C=Cc4ccccc4N3[B-]2(F)F)cc1", "trans isomer ratio under dark / %": 93}
{"Mol smiles": "CN1CCN(c2ccc(N=[N+]3C(C#N)=C4C=Cc5ccccc5N4[B-]3(F)F)cc2)CC1", "trans isomer ratio under dark / %": 94}

----------
# Test description: Stability to reduction by glutathione, 10 mM GSH in acetonitrile:PBS buffer (1:1)
# Type: physicochemical
# Experimental parameters: acetonitrile:PBS (1:1) with 10 mM GSH, 25° C.
Result type: degradation half-life with GSH (h)

{"Compound": "CN1CCN(c2ccc(N=[N+]3C(C#N)=C4C=Cc5ccccc5N4[B-]3(F)F)cc2)CC1 [Compound 6]", "Result type": "degradation half-life with GSH", "Measurement unit": "h", "Numeric readout": 1.3}
{"Compound": "CN(C)c1ccc(N=[N+]2C(C#N)=C3C=Cc4ccccc4N3[B-]2(F)F)cc1 [Compound 4]", "Result type": "degradation half-life with GSH", "Measurement unit": "h", "Numeric readout": 2.5}

(I) N#CC1=C2C=Cc3ccccc3N2[B-](F)(F)[N+]1=Nc1ccc(N2CCOCC2)cc1 [Compound 7]
(II) N#CC1=C2C=Cc3ccccc3N2[B-](F)(F)[N+]1=Nc1ccc(N2CCCCC2)cc1 [Compound 5]
Select the item with the higher value of degradation half-life with GSH from the options I and II listed. Could you answer with the label of the item you picked?
II
(II: 2.1 h, I: 1.0 h)
